Tested on: U2932 parental
Assay info: cell proliferation relative to vehicle (% of vehicle); higher = less growth inhibition
Conditions: 500 nM; 72 h
Param threshold (90) applies to cell proliferation; output T when value >= threshold, F when value < threshold.

Data request: Is cell proliferation at least 90? Consider C[C@]1(O)C[C@@H](c2nc(-c3ccc4ccc(-c5ccccc5)nc4c3)c3c(N)nccn32)C1
Data returned: T

Data request: Is cell proliferation at least 90? Consider OCCn1cc(-c2cnc3nnn(Cc4ccc5ncccc5c4)c3n2)cn1
Data returned: T

Data request: Is cell proliferation at least 90? Consider O=C(Nc1c[nH]nc1-c1nc2ccc(CN3CCOCC3)cc2[nH]1)NC1CC1
Data returned: F

Data request: Is cell proliferation at least 90? Consider O=C(O)CC[C@H]1CC[C@@](c2cc(F)ccc2F)(S(=O)(=O)c2ccc(Cl)cc2)CC1
Data returned: T

Data request: Is cell proliferation at least 90? Consider O=C(NCc1ccncc1)C12CC3CC(C1)CC(c1ccc(Cl)cc1)(C3)C2
Data returned: T

Data request: Is cell proliferation at least 90? Consider CN(C)CCOc1ccc(-c2nc(-c3ccncc3)c(-c3ccc4c(c3)CC/C4=N\O)[nH]2)cc1
Data returned: T

Source of measurements: the supplement of paper PMC13172266
